# test-target: CCK1R (Homo sapiens, UniProt P32238)
# Sequence (P32238 whole entry): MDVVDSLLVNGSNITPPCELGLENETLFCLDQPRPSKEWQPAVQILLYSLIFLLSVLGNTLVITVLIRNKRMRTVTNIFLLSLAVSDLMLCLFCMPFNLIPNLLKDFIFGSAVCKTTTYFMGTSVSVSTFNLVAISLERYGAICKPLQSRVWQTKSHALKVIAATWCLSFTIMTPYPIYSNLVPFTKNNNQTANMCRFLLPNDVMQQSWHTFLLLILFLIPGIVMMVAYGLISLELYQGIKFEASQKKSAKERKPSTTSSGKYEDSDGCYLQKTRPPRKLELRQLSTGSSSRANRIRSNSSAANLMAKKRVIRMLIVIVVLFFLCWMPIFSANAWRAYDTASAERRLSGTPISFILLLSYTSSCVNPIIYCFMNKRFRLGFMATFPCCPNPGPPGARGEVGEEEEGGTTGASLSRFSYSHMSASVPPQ
# procedure-summary: IP-One accumulation TR-FRET assay, PAM format, HEK-293 CCK1R cells
# Type: cell-based
# Set-up: expressed in transfected cells; host or cells: HEK-293
# experimental-context: HEK293; HEK-293 CCK1R cells, PAM format, relative to CCK control; average ± SD
parameter: Emax (%)
Provide the reading as a plain figure in %.

Known Emax results, listed for orientation:
>  <structure-smiles>
Sc1nnnc2c1sc1nc(N3CCOCC3)c3c(c12)CCCC3

>  <Emax, %>
0

$$$$
>  <structure-smiles>
CCCc1nc2oc3c(NN)ncnc3c2c2c1CCCC2

>  <Emax, %>
0

$$$$
>  <structure-smiles>
CC(C)Cc1nc2oc3c(NCCCN(C)C)ncnc3c2c2c1CCC2

>  <Emax, %>
52

$$$$

# Emax measured on CCK1R (Homo sapiens, UniProt P32238) for item "CC(C)Cc1nc2sc3c(NCCN4CCOCC4)ncnc3c2c2c1CCCC2" = 34

Reported Emax (CCK1R (Homo sapiens, UniProt P32238)) for entry "COc1ccc(NC(=O)CSc2ncnc3c2sc2nc(N4CCOCC4)c4c(c23)CCCC4)cc1" is 0

Form: item "CCN(CC)CCCNc1ncnc2c1oc1nc(CC(C)C)c3c(c12)CCC3" ; test system CCK1R (Homo sapiens, UniProt P32238); Emax: 51

GET /values?item= "CCCc1nc2sc3c(NCCN(CC)CC)ncnc3c2c2c1CCCC2" &system= CCK1R (Homo sapiens, UniProt P32238) returns Emax: 48

The compound "O=C(O)CSc1ncnc2c1sc1nc(N3CCOCC3)c3c(c12)CCCC3" , when measured on CCK1R (Homo sapiens, UniProt P32238), yielded Emax of 0

Form: item "CCCc1nc2oc3c(N4CCNCC4)ncnc3c2c2c1CCCC2" ; test system CCK1R (Homo sapiens, UniProt P32238); Emax: 46

CCK1R (Homo sapiens, UniProt P32238) assay, compound "CN(C)CCCNc1nnnc2c1sc1nc(N3CCOCC3)c3c(c12)CCCC3" , recorded Emax = 50

Readout Emax for "CCCCNc1ncnc2c1sc1nc(N3CCOCC3)c3c(c12)CCCC3" , test system CCK1R (Homo sapiens, UniProt P32238), was 0

Assay CCK1R (Homo sapiens, UniProt P32238), sample "CCN(CC)CCNc1ncnc2c1sc1nc(N3CCOCC3)c3c(c12)CCCC3" , Emax read: 60
